UniProtKB P00760: recorded IC50 for assorted molecules
Sequence (P00760 24-246): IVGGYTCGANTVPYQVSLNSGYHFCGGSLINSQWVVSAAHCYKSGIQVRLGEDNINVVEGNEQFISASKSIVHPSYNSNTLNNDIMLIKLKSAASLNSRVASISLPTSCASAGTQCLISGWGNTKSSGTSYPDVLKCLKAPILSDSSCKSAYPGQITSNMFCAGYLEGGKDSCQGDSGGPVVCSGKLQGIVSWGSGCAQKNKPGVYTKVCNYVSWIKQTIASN
Measure: IC50 (µM)

                                   molecule  measure  recorded_result
0  O=C(c1ccc(Cl)cc1)c1c[nH]cc1-c1cccc2ccccc12     IC50                8
1    O=C(c1ccccc1)c1c[nH]cc1-c1cccc2ccccc12     IC50               65
2  O=C(O)c1ccccc1O [Salicylic acid, reference compound]     IC50              100
3  O=C(c1cccs1)c1c[nH]cc1-c1cccc(Oc2ccccc2)c1     IC50               60
